As an illustration, consider measured IC50 for compounds on UniProt:Q72874.
Report only the number, with the unit nM understood.

Worked cases, IC50 given:
CC(C)(C)OC(=O)N[C@@H](Cc1ccccc1)[C@@H](O)C[C@@H](Cc1ccc(I)cc1)C(=O)N[C@@H]1c2ccccc2C[C@H]1O; 0.719
CC(C)(C)OC(=O)N[C@@H](Cc1ccccc1)[C@@H](O)C[C@@H](Cc1ccccc1)C(=O)N[C@@H]1c2ccccc2CC[C@H]1O; 0.7

Note: attention shifts to another entry.
Entry CC(C)(C)OC(=O)N[C@@H](Cc1ccccc1)[C@@H](O)C[C@@H](Cc1c(F)c(F)c(F)c(F)c1F)C(=O)N[C@@H]1c2ccccc2C[C@H]1O , tested on UniProt:Q72874, has a reported IC50 of 0.6
